Examples of compounds with documented inhibition follow.
# system: Sentrin-specific protease 6 (Homo sapiens) (UniProt Q9GZR1)
# Sequence (Q9GZR1 628-1112 limits assumed): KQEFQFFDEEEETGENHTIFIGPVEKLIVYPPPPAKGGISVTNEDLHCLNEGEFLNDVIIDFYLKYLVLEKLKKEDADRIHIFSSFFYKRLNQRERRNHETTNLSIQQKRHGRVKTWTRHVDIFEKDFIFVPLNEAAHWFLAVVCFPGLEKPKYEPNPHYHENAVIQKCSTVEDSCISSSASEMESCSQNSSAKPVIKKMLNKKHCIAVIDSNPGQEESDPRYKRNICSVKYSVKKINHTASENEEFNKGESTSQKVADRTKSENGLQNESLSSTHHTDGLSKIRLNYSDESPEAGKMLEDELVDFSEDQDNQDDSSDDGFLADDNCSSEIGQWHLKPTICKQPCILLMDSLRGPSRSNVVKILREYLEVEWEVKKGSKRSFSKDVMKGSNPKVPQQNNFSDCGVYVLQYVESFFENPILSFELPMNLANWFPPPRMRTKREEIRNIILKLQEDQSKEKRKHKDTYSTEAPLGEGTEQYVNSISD
# assay_explanation: SENP6 protease inhibitors, confirmation, biochemical, luminescence, single concentration (AID 488915)
# condition_label: recombinant SENP6, Z-RLRGG-aminoluciferin luminescence; at 12.5 µM; stronger effect = higher value
The list shows a part of the results.
Answer in %, number only, no unit symbol.

Consider the worked cases shown below.
>  <compound>
CC(=O)N1C(=O)/C(=C2\SC(=S)N(NC(=O)c3ccc(O)cc3)C2=O)c2ccccc21

>  <readout_kind>
inhibition

>  <value_reported>
79.1

$$$$
>  <compound>
O=C(N/N=C/c1cccnc1)c1cc2ccccc2cc1O

>  <readout_kind>
inhibition

>  <value_reported>
22.6

$$$$
>  <compound>
Cc1cccc(/C(N)=N/OC(=O)c2ccccc2Cl)c1

>  <readout_kind>
inhibition

>  <value_reported>
98.9

$$$$
>  <compound>
O=C(c1cnn2ccccc12)N1CCc2ccccc21

>  <readout_kind>
inhibition

>  <value_reported>
39.6

$$$$
>  <compound>
COc1cc(SC)ccc1C(=O)Nc1nc(C)cs1

>  <readout_kind>
inhibition

>  <value_reported>
98.7

$$$$
>  <compound>
CCOc1ccc(-c2nnc(-c3ccco3)o2)cc1

>  <readout_kind>
inhibition

>  <value_reported>
72.1

$$$$

Req: # lookup: inhibition of `Fc1ccc2nc(N3CCCCC3)sc2c1`
Resp: 78.8

Req: State the recorded inhibition for this entry: `CCCc1cc(C(=O)Nc2ccc(Cl)cn2)cs1`
Resp: 79.2

Req: Item under review: `CCSc1nnc(NC(=O)c2ccc(C)cc2)s1` . Reported inhibition?
Resp: 23.5

Req: Reported inhibition for `Fc1ccccc1/C=N/Nc1cc(N2CCCCC2)ncn1` : what is it?
Resp: 16.9

Req: Name the reported inhibition value associated with the compound `C=CCNC(=S)N1CCN(CCN=Cc2c(C)[nH]n(-c3ccc([N+](=O)[O-])cc3)c2=O)CC1`
Resp: 21.1

Req: inhibition lookup needed for `CCc1noc(C)c1C(=O)Nc1nc2ccc(OC)cc2s1` , thanks.
Resp: 42.8

Req: Name the reported inhibition value associated with the compound `CC(C)N(C(=O)Cn1cc(SCC(=O)N2CCCC2)c2ccccc21)C(C)C`
Resp: -18.1

Req: Looking for the measured inhibition of `O=C(c1cnn(-c2ccc(Cl)cc2)c1)c1ccccc1O` , can you help?
Resp: 95.3

Req: Reported inhibition for `COc1ccc(C(=O)Nc2ccc(F)cc2F)cc1` : what is it?
Resp: 60.2

----------
Form field: inhibition (one value per entry).
# Test system: Rat fibroblasts (CREF)
# assay_explanation: Peg3 promoter luciferase inhibitors, potency, dose response, cell-based, HeLa, CREF/GAPDH counter-screen panel (AID 624167)
# condition_label: CREF/GAPDH counter-screens; run 2, dose range 1, at 100 µM (top of the series)
The answer consists of two parts: a number and, after it, its unit.

The following compounds have reported results that may help.
>  <compound>
CCOc1cccc(/C=N/NC(=S)Nc2cc(S(=O)(=O)N3CCOCC3)ccc2N2CCOCC2)c1O

>  <inhibition>
48.3%

$$$$
>  <compound>
CC(=O)NC(c1ccc(Cl)cc1Cl)c1ccc2cccnc2c1O (stereo unspecified)

>  <inhibition>
0.461%

$$$$
>  <compound>
COc1ccc(C(=O)/C=C/Nc2ccccn2)cc1

>  <inhibition>
96.7%

$$$$

Req: Which inhibition is reported for this compound? `CN(C)S(=O)(=O)c1ccc(-c2csc(N/N=C/c3ccc(O)cc3)n2)cc1`
Resp: 98.8%

Req: Value lookup for inhibition; key = `CCOc1ccc(NC(=O)Nc2cccc(C(=O)O)c2)cc1`
Resp: 94.1%

Req: Return reported inhibition; argument: `CCc1ccn2cc(-c3ccc4c(c3)OCO4)nc2c1`
Resp: 97.5%

Req: What value of inhibition has been recorded for this entry: `O=C(Nc1ncc([N+](=O)[O-])s1)c1ccc2c(c1)OCO2`
Resp: 91.7%

Req: Could you share which inhibition value was measured for NC(Cc1ccc(F)cc1)c1csc(Nc2cc(Oc3ccccc3)ncn2)n1 (stereo unspecified) ?
Resp: 94.1%

Req: Which value of inhibition has been reported for `Cc1cccc(OCC(=O)NCC(=O)N/N=C/c2cc(Br)cc(Br)c2O)c1` in the records?
Resp: 74.7%

Req: Which measured inhibition value corresponds to `O=C(Nc1nc2cc3c(cc2s1)OCCO3)C1=COCCO1` ?
Resp: 97%

Req: Name the recorded inhibition for `O=C(N/N=C/c1ccc(Cl)c([N+](=O)[O-])c1)c1cc(-c2ccc3c4c(cccc24)CC3)n[nH]1` .
Resp: 4.99%

Req: State the recorded inhibition for this entry: `CN1CCN(c2ccc(-c3ccc4ccccc4n3)cc2)CC1`
Resp: 98.6%

Req: For the compound shown here, `CCc1ccc(/C=C2\SC(=S)N(CCCC(=O)NC3=NCCS3)C2=O)cc1` , give the reported inhibition.
Resp: 7.65%

Req: Which inhibition is reported for this compound? CCCS(=O)(=O)c1cnc(C2COc3ccccc3O2)nc1N (stereo unspecified)
Resp: 87.6%

Req: Field request: inhibition | item: `Cc1ccc2nc(-c3ccc4c(c3)OCCO4)cn2c1`
Resp: 99.9%

Req: Need inhibition of `O=C(CNc1ccccc1)N/N=C/c1c(O)ccc2ccccc12` , thanks.
Resp: 49.7%

Req: State the recorded inhibition for this entry: CCC(=O)NC(c1cccs1)c1cc(Cl)c2cccnc2c1O (stereo unspecified)
Resp: 97.6%

Req: Look up inhibition for this compound: `Cc1cnc(NC(=O)c2ccc3c(c2)OCCO3)s1`
Resp: 99.6%

Req: # query: inhibition of entry `Cc1ccc(C(=O)Nc2nc3ccccc3[nH]2)cc1`
Resp: 98.7%

Req: So what's the measured inhibition for this one? `COc1cc(SC)ccc1C(=O)Nc1nc2ccccc2[nH]1`
Resp: 97.9%

Req: Value lookup for inhibition; key = `CN(C)c1ccc(/C=C/c2ccc3ccccc3n2)cc1`
Resp: 95.8%

Req: What inhibition value was documented for this compound, `Brc1ccc(N=Nc2ccc3ccccc3n2)cc1` ?
Resp: 96.3%

Req: Given the compound `CN(C)c1ccc(C=c2c3ccccc3n3c2cc(-c2ccccc2)[n+]3C)cc1` , what is its reported inhibition?
Resp: 100%

Req: If you can, please state the reported inhibition value of `Cc1nc2cc(-c3ccccc3)sc2c(=O)n1N` .
Resp: 92%

Req: Endpoint output: inhibition of `Cc1ccc(C(=O)Nc2ncc([N+](=O)[O-])s2)cc1` . Value?
Resp: 88.8%

Req: # input compound: `OCCCNc1nccc(-c2cc(Nc3cccc(Cl)c3)ncn2)n1` ; wanted: its inhibition
Resp: 62.3%
